Test system: lysozyme's vasodilatory effect in canine carotid artery preparation
Experiment: Lysozyme-induced vasodilation in canine carotid artery preparation (in-vitro)
Conditions: canine carotid artery preparation, in-vitro
readout: block of lysozyme's vasodilatory effect

>  <molecule>
CCOC(=O)c1cc(O)c(O)c(O)c1 [ethyl gallate]

>  <block of lysozyme's vasodilatory effect>
blocked

$$$$
>  <molecule>
O=c1cc(-c2ccc(O)c(O)c2)oc2cc(O)cc(O)c12 [luteolin]

>  <block of lysozyme's vasodilatory effect>
failed to block

$$$$
>  <molecule>
COC(=O)c1cc(O)c(O)c(O)c1 [methyl gallate]

>  <block of lysozyme's vasodilatory effect>
blocked

$$$$
>  <molecule>
COc1cc(/C=C/C(=O)CC(=O)/C=C/c2ccc(O)c(OC)c2)ccc1O [curcumin]

>  <block of lysozyme's vasodilatory effect>
failed to block

$$$$
>  <molecule>
COc1ccccc1O [guaicol]

>  <block of lysozyme's vasodilatory effect>
failed to block

$$$$

input: # query: block of lysozyme's vasodilatory effect | item O=C([O-])c1ccccc1.[Na+] [sodium benzoate] | system: lysozyme's vasodilatory effect in canine carotid artery preparation
output: failed to block

input: # query: block of lysozyme's vasodilatory effect | item CCCOC(=O)c1cc(O)c(O)c(O)c1 [propyl gallate] | system: lysozyme's vasodilatory effect in canine carotid artery preparation
output: failed to block

input: # query: block of lysozyme's vasodilatory effect | item O=C(O[C@@H]1Cc2c(O)cc(O)cc2O[C@@H]1c1ccc(O)c(O)c1)c1cc(O)c(O)c(O)c1 [epicathechin gallate] | system: lysozyme's vasodilatory effect in canine carotid artery preparation
output: failed to block

input: # query: block of lysozyme's vasodilatory effect | item N[C@@H](CCC(=O)N[C@@H](CS)C(=O)NCC(=O)O)C(=O)O [reduced glutathione] | system: lysozyme's vasodilatory effect in canine carotid artery preparation
output: failed to block

input: # query: block of lysozyme's vasodilatory effect | item CCOC(=O)c1ccc(O)c(O)c1 [ethyl 3,4-dihydroxybenzoate] | system: lysozyme's vasodilatory effect in canine carotid artery preparation
output: blocked

Reference source for all entries: patent US20120277312A1
